src = patent US6759384B1

assay: Ex vivo dilute prothrombin time assay after iv administration to rats; conditions: rat, in vivo, time at which approximately 50% of the initial anticoagulant activity remains in plasma, read-out: T1/2 Rat ex vivo
Where a name gives a salt, the structure may show the parent alone. Starred links: 1 amine or outer side, 2 acyl side, 3 side chain; linkers in the order of their positions; H or OH if unused. Non-standard residues stand in square brackets, D forms with d. Residues, ends and D or L forms follow the SMILES beside them. *: point of attachment. X1 = CC(C)CN([C@@H](Cc1ccc(O)cc1)C(=O)[*:2])[*:1]; 2Nal = N[C@@H](Cc1ccc2ccccc2c1)C(=O)O; Chg = N[C@H](C(=O)O)C1CCCCC1; Tfa = O=C(C(F)(F)F)*
experimental-readout: half-life (min)

compound	number
CC(=O)N[C@@H](Cc1ccc(O)cc1)C(=O)N[C@H](C(=O)N[C@@H](CCCNC(=N)N)C(N)=O)C1CCCCC1 [Ac—Y—Chg—R—NH2] (Ac-Tyr-[Chg]-Arg-NH2)	5
CC(C)C[C@H](NC(=O)[C@H](CCCNC(=N)N)NC(=O)[C@@H](NC(=O)[C@H](Cc1ccc(O)cc1)N(CC(C)C)C(=O)C(F)(F)F)C1CCCCC1)C(=O)N1CCC[C@H]1C(N)=O [Tfa—(iBu)Y—Chg—R—L—P—NH2, Tfa-(iBu)Tyr-Chg-Arg-Leu-Pro-NH2] (Tfa-[X1][Chg]RLP-NH2)	15
CC(=O)N[C@@H](Cc1ccc2ccccc2c1)C(=O)N[C@H](C(=O)N[C@@H](CCCNC(=N)N)C(=O)N[C@@H](CC(C)C)C(=O)N1CCC[C@H]1C(N)=O)C1CCCCC1 [Ac—Nal(2)—Chg—R—L—P—NH2, Ac-Nal(2)-Chg-Arg-Leu-Pro-NH2] (Ac-[2Nal][Chg]RLP-NH2)	6
